System: U2OS
Assay: Multiplex assay against U2OS
Type: toxicity, cell-based
Conditions: human, 12 h, 1 µM, compound concentration 1 uM, replicate 2
readout label: Population Fragmented Nuclei (%)

molecule	result unit	numeric value
CCc1cccc(CC)c1NC(=O)c1nn(C)c2c1CCc1cnc(Nc3ccc(N4CCN(C)CC4)cc3OC)nc1-2	%	18
O=C(Nc1ccc(Cl)cc1)Nc1cccc(-c2cccc(N3CCCC3)n2)c1	%	17
O=C(Nc1ccc(-n2nc(-c3cccnc3)cc2C(F)(F)F)cn1)c1ccc(-c2ccccc2)c(F)c1 [BI 2049]	%	4
Cc1cn(-c2cc(NC(=O)c3ccc(C)c(Nc4nccc(-c5cccnc5)n4)c3)cc(C(F)(F)F)c2)cn1 [NILOTINIB]	%	1
CCc1cccc(CC)c1NC(=O)c1nn(C)c2c1CCc1cnc(Nc3ccc(C(=O)NC4CCN(C)CC4)cc3OC(F)(F)F)nc1-2	%	1
O=C(Nc1cccnn1)N1CCC(=Cc2cccc(Oc3ccc(C(F)(F)F)cn3)c2)CC1	%	13
CCCS(=O)(=O)c1nc(NC2CC2)cc(-c2ccc3c(ccn3C3CC(C)(C)NC(C)(C)C3)c2)n1	%	14
CCCn1c(=O)c2[nH]c(-c3cnn(Cc4cccc(C(F)(F)F)c4)c3)nc2n(CC)c1=O [GS 6201]	%	4
S=C(NCCCc1c[nH]cn1)NCCCN(Cc1ccc(Cl)c(Cl)c1)c1ccc(Br)cn1	%	17
CCN1CCN(c2ccc(Nc3cc(N(C)C(=O)Nc4c(Cl)c(OC)cc(OC)c4Cl)ncn3)cc2)CC1 [INFIGRATINIB]	%	26
Cn1nc(C(F)(F)F)cc1-c1cnc(N2CCc3cc(S(=O)(=O)Nc4c(F)cc(Cl)cc4F)cc(N4CCCC4=O)c32)nc1 [TP-020]	%	14
C=CCn1c(=O)c2cnc(Nc3ccc(N4CCN(C)CC4)cc3)nc2n1-c1cccc(C(C)(C)O)n1 [ADAVOSERTIB]	%	16
O=C1NC(=O)C(c2cnc3ccccn23)=C1c1cn2c3c(cc(F)cc13)CN(C(=O)N1CCCCC1)CC2 [LY-2090314]	%	3
CN(C)C(=O)C(CCN1CCC(O)(c2ccc(Cl)cc2)CC1)(c1ccccc1)c1ccccc1.Cl [LOPERAMIDE HYDROCHLORIDE]	%	5
Cl.Oc1ccc2c3c1O[C@H]1c4[nH]c5c(c4C[C@@]4(O)[C@@H](C2)N(CC2CC2)CC[C@]314)C[C@@]1(O)[C@H]2Cc3ccc(O)c4c3[C@@]1(CCN2CC1CC1)[C@H]5O4	%	3

----------
Test system: Fibroblast
Experiment: Multiplex assay against human fibroblast
Type: toxicity, cell-based
Settings: 48 h, 10 µM, compound concentration 10 uM, replicate 1

molecule	Population Apoptotic (%)
CCOc1cc2ncc(C#N)c(Nc3ccc(OCc4ccccn4)c(Cl)c3)c2cc1NC(=O)/C=C/CN(C)C	55
COc1cc(N2CCN(C)CC2)ccc1Nc1ncc2c(n1)N(C)c1ccccc1C(=O)N2C	85
Cl.Oc1ccc2c3c1O[C@H]1c4[nH]c5c(c4C[C@@]4(O)[C@@H](C2)N(CC2CC2)CC[C@]314)C[C@@]1(O)[C@H]2Cc3ccc(O)c4c3[C@@]1(CCN2CC1CC1)[C@H]5O4	61
CN1CCC(=C2c3ccccc3CC(=O)c3sccc32)CC1.O=C(O)/C=C/C(=O)O [KETOTIFEN FUMARATE]	87
Cc1ccc(C(=O)Nc2cccc(C(F)(F)F)c2)cc1Nc1nc(-c2cccnc2)nc2c1cnn2C	66
CCOC(=O)c1c(C)[nH]c2ccc3c(c12)CN1CCc2cc(OC)ccc2C1O3 (centres undefined)	90
COCC(=O)NC/C=C/c1ccc2ncnc(Nc3ccc(Oc4ccc(C)nc4)c(C)c3)c2c1	77
CCOc1cc(C(=O)N2CCC(N3CCN(C)CC3)CC2)ccc1Nc1ncc2c(n1)N(C1CCCC1)c1ccccc1C(=O)N2C	88
O=C(Cc1ccc(-c2ccc(OCCN3CCOCC3)cc2)cn1)NCc1ccccc1	48
CN(C)C(=O)C(CCN1CCC(O)(c2ccc(Cl)cc2)CC1)(c1ccccc1)c1ccccc1.Cl [LOPERAMIDE HYDROCHLORIDE]	86
CN1CCN(C(=O)C(C)(C)c2ccc(C(=O)Nc3cn4cc(-c5ccncc5)ccc4n3)cc2)CC1	52
CCN1CCN(Cc2ccc(Nc3ncc(F)c(-c4cc(F)c5nc(C)n(C(C)C)c5c4)n3)nc2)CC1.CS(=O)(=O)O	100
Cl.O=c1c2cccn2c2ccccc2n1CCCN1CCC(c2ccc(Cl)cc2)CC1	81
C=C1/C(=C\C=C2/CCC[C@]3(C)[C@@H]([C@H](C)/C=C/[C@H](C)C(C)C)CC[C@@H]23)C[C@@H](O)C[C@@H]1O	86
O=C(Nc1ccc(-c2ccnc(Nc3ccc(N4CCOCC4)cc3)n2)cc1)[C@@H]1CCCN1	83
S=C(NCCCc1c[nH]cn1)NCCCN(Cc1ccc(Cl)c(Cl)c1)c1ccc(Br)cn1	58
CN1C2CCC1CC(OC(c1ccc(F)cc1)c1ccc(F)cc1)C2.Cl (centres undefined)	80
CNc1cc(Oc2cc(C(=O)Nc3cc(N4CCN(C)CC4)cc(C(F)(F)F)c3)ccc2C)ncn1	75
CCc1cccc(CC)c1NC(=O)c1nn(C)c2c1CCc1cnc(Nc3ccc(C(=O)NC4CCN(C)CC4)cc3OC(F)(F)F)nc1-2	70
CCCS(=O)(=O)c1nc(NC2CC2)cc(-c2ccc3c(ccn3C3CC(C)(C)NC(C)(C)C3)c2)n1	76
O=C1NC(=O)C(c2cnc3ccccn23)=C1c1cn2c3c(cc(F)cc13)CN(C(=O)N1CCCCC1)CC2	73
Cc1cc(C)c(S(=O)(=O)N(Cc2ccc(-c3cccc(S(C)(=O)=O)c3)cc2)Cc2ccc(C(F)(F)F)o2)c(C)c1	100
O=C(Nc1ccc(Cl)cc1)Nc1cccc(-c2cccc(N3CCCC3)n2)c1	94
O=C(Nc1ccc(-n2nc(-c3cccnc3)cc2C(F)(F)F)cn1)c1ccc(-c2ccccc2)c(F)c1	72
CCCn1c(=O)c2[nH]c(-c3cnn(Cc4cccc(C(F)(F)F)c4)c3)nc2n(CC)c1=O	84
Cc1cn(-c2cc(NC(=O)c3ccc(C)c(Nc4nccc(-c5cccnc5)n4)c3)cc(C(F)(F)F)c2)cn1	47
CCn1c(=O)c(-c2ccc(-c3cncs3)cc2Cl)cc2cnc(Nc3ccc(N4CCN(C)CC4)cc3)nc21	92
Cl.O=C(c1ccc(Nc2nccc(-c3cc4ccccc4s3)n2)cc1)N1CCC(N2CCCC2)CC1	91
O=C1N/C(=N/c2ccccc2F)S/C1=C\c1ccc(C(=O)O)cc1	53

----------
Tested on: HEK-293T
Test: Multiplex assay against HEK293T
Assay type: toxicity, cell-based
Conditions: human, 48 h, 1 µM, compound concentration 1 uM, replicate 1
Reported Population Apoptotic (%) is given for each of the following molecules.

molecule	tested target	Population Apoptotic (%)
Cl.O=c1c2cccn2c2ccccc2n1CCCN1CCC(c2ccc(Cl)cc2)CC1	HEK-293T	43
Cl.Oc1ccc2c3c1O[C@H]1c4[nH]c5c(c4C[C@@]4(O)[C@@H](C2)N(CC2CC2)CC[C@]314)C[C@@]1(O)[C@H]2Cc3ccc(O)c4c3[C@@]1(CCN2CC1CC1)[C@H]5O4	HEK-293T	43
CCCn1c(=O)c2[nH]c(-c3cnn(Cc4cccc(C(F)(F)F)c4)c3)nc2n(CC)c1=O	HEK-293T	55
CN(C)C(=O)C(CCN1CCC(O)(c2ccc(Cl)cc2)CC1)(c1ccccc1)c1ccccc1.Cl [LOPERAMIDE HYDROCHLORIDE]	HEK-293T	75
O=C(Nc1ccc(-n2nc(-c3cccnc3)cc2C(F)(F)F)cn1)c1ccc(-c2ccccc2)c(F)c1	HEK-293T	54
C=C1/C(=C\C=C2/CCC[C@]3(C)[C@@H]([C@H](C)/C=C/[C@H](C)C(C)C)CC[C@@H]23)C[C@@H](O)C[C@@H]1O	HEK-293T	46
CN1C2CCC1CC(OC(c1ccc(F)cc1)c1ccc(F)cc1)C2.Cl (stereo unspecified)	HEK-293T	47
CCc1cccc(CC)c1NC(=O)c1nn(C)c2c1CCc1cnc(Nc3ccc(C(=O)NC4CCN(C)CC4)cc3OC(F)(F)F)nc1-2	HEK-293T	43
CCOc1cc2ncc(C#N)c(Nc3ccc(OCc4ccccn4)c(Cl)c3)c2cc1NC(=O)/C=C/CN(C)C	HEK-293T	62
CCCS(=O)(=O)c1nc(NC2CC2)cc(-c2ccc3c(ccn3C3CC(C)(C)NC(C)(C)C3)c2)n1	HEK-293T	54
Cc1cc(C)c(S(=O)(=O)N(Cc2ccc(-c3cccc(S(C)(=O)=O)c3)cc2)Cc2ccc(C(F)(F)F)o2)c(C)c1	HEK-293T	46
CCN1CCN(Cc2ccc(Nc3ncc(F)c(-c4cc(F)c5nc(C)n(C(C)C)c5c4)n3)nc2)CC1.CS(=O)(=O)O	HEK-293T	58
Cc1cn(-c2cc(NC(=O)c3ccc(C)c(Nc4nccc(-c5cccnc5)n4)c3)cc(C(F)(F)F)c2)cn1	HEK-293T	64
O=C(Nc1ccc(Cl)cc1)Nc1cccc(-c2cccc(N3CCCC3)n2)c1	HEK-293T	47
O=C(Nc1ccc(-c2ccnc(Nc3ccc(N4CCOCC4)cc3)n2)cc1)[C@@H]1CCCN1	HEK-293T	48
S=C(NCCCc1c[nH]cn1)NCCCN(Cc1ccc(Cl)c(Cl)c1)c1ccc(Br)cn1	HEK-293T	49
Cc1ccc(C(=O)Nc2cccc(C(F)(F)F)c2)cc1Nc1nc(-c2cccnc2)nc2c1cnn2C	HEK-293T	52
O=C1N/C(=N/c2ccccc2F)S/C1=C\c1ccc(C(=O)O)cc1	HEK-293T	44
CCOC(=O)c1c(C)[nH]c2ccc3c(c12)CN1CCc2cc(OC)ccc2C1O3 (stereo unspecified)	HEK-293T	52
COc1cc(N2CCN(C)CC2)ccc1Nc1ncc2c(n1)N(C)c1ccccc1C(=O)N2C	HEK-293T	36
CN1CCC(=C2c3ccccc3CC(=O)c3sccc32)CC1.O=C(O)/C=C/C(=O)O [KETOTIFEN FUMARATE]	HEK-293T	35
O=C(Cc1ccc(-c2ccc(OCCN3CCOCC3)cc2)cn1)NCc1ccccc1	HEK-293T	56
O=C1NC(=O)C(c2cnc3ccccn23)=C1c1cn2c3c(cc(F)cc13)CN(C(=O)N1CCCCC1)CC2	HEK-293T	52
CCOc1cc(C(=O)N2CCC(N3CCN(C)CC3)CC2)ccc1Nc1ncc2c(n1)N(C1CCCC1)c1ccccc1C(=O)N2C	HEK-293T	64
CNc1cc(Oc2cc(C(=O)Nc3cc(N4CCN(C)CC4)cc(C(F)(F)F)c3)ccc2C)ncn1	HEK-293T	68
CCn1c(=O)c(-c2ccc(-c3cncs3)cc2Cl)cc2cnc(Nc3ccc(N4CCN(C)CC4)cc3)nc21	HEK-293T	50

Origin of measurements: ChEMBL document CHEMBL4689842
